Would you kindly list IC50 for each of these compounds?
system: MOLT-4F; assay: Inhibition of proliferation of Human T Lymphoblast (Molt/4F) cells was measured; assay type: functional; details: read-out: ID50 (the source's name)
Give bare numbers, in µg/mL.

Cl.Cl.Cn1cc(NC(=O)c2cc(NC(=O)c3cc(NC=O)cn3C)cn2C)cc1C(=O)NCCC(=N)N | 28.4
Cl.Cn1cc(NC(=O)c2cc(NC(=O)CF)cn2C)cc1C(=O)NCCC(=N)N | 32.3
Cl.Cn1cc(NC(=O)c2cc(NC(=O)C3CC3)cn2C)cc1C(=O)NCCC(=N)N | 7.8
CC[N+](CC)(CC)CC.Cn1cc(NC(=O)c2cc(NC(=O)C(Cl)Cl)cn2C)cc1C(=O)NCCC(=N)N.O=S(=O)([O-])O | 27.2
Cl.Cn1cc(NC(=O)c2cc(NC(=O)CCl)cn2C)cc1C(=O)NCCC(=N)N | 28.7

Now consider a different compound.
For Cl.Cn1cc(NC(=O)c2cc(NC(=O)C(Cl)(Cl)Cl)cn2C)cc1C(=O)NCCC(=N)N , what is its reported IC50?
84.3

====

tested on: rhinovirus A9; test: Minimum inhibitory concentration required to reduce virus induced cytopathogenicity by 50% against rhino-9 virus in WI-38 cell cultures; format: functional; conditions: Rhinovirus A
Would you kindly list MIC for each of these compounds?
Numbers only, in µg/mL.

CC[N+](CC)(CC)CC.Cn1cc(NC(=O)c2cc(NC(=O)C(Cl)Cl)cn2C)cc1C(=O)NCCC(=N)N.O=S(=O)([O-])O | 40

Now consider a different compound.
For Cl.Cn1cc(NC(=O)c2cc(NC(=O)C3CC3)cn2C)cc1C(=O)NCCC(=N)N , what is its reported MIC?
20

====

test: Minimum inhibitory concentration required to reduce virus induced cytopathogenicity by 50% against para influenza virus in WI-38 cell cultures; assay type: functional
Would you kindly list MIC for each of these compounds?

Cl.Cl.Cn1cc(NC(=O)c2cc(NC(=O)CNC(=N)N)cn2C)cc1C(=O)NCCC(=N)N | > 100 µg/mL
Cl.Cn1cc(NC(=O)c2cc(NC(=O)C(Cl)(Cl)Cl)cn2C)cc1C(=O)NCCC(=N)N | > 100 µg/mL
Cl.Cl.Cn1cc(NC(=O)c2cc(NC(=O)c3cc(NC=O)cn3C)cn2C)cc1C(=O)NCCC(=N)N | > 200 µg/mL
CC[N+](CC)(CC)CC.Cn1cc(NC(=O)c2cc(NC(=O)C(Cl)Cl)cn2C)cc1C(=O)NCCC(=N)N.O=S(=O)([O-])O | > 100 µg/mL

I have 3 compounds here; please give me MIC for each one.
1. Cl.Cn1cc(NC(=O)c2cc(NC(=O)C3CC3)cn2C)cc1C(=O)NCCC(=N)N
2. Cl.Cn1cc(NC(=O)c2cc(NC(=O)CF)cn2C)cc1C(=O)NCCC(=N)N
3. Cl.Cn1cc(NC(=O)c2cc(NC(=O)CCl)cn2C)cc1C(=O)NCCC(=N)N

> 100 µg/mL
> 40 µg/mL
> 100 µg/mL

====

Would you kindly list MIC for each of these compounds?
test system: Sindbis virus; assay: Minimum inhibitory concentration required to reduce virus induced cytopathogenicity by 50% against sindbis virus in Vero B cell cultures; assay type: functional

I have 7 compounds here; please give me MIC for each one.
1. Cl.Cn1cc(NC(=O)c2cc(NC(=O)C(Cl)(Cl)Cl)cn2C)cc1C(=O)NCCC(=N)N
2. Cl.Cn1cc(NC(=O)c2cc(NC(=O)CCl)cn2C)cc1C(=O)NCCC(=N)N
3. Cl.Cl.Cn1cc(NC(=O)c2cc(NC(=O)CNC(=N)N)cn2C)cc1C(=O)NCCC(=N)N
4. Cl.Cl.Cn1cc(NC(=O)c2cc(NC(=O)c3cc(NC=O)cn3C)cn2C)cc1C(=O)NCCC(=N)N
5. Cl.Cn1cc(NC(=O)c2cc(NC(=O)C3CC3)cn2C)cc1C(=O)NCCC(=N)N
6. Cl.Cn1cc(NC(=O)c2cc(NC(=O)CF)cn2C)cc1C(=O)NCCC(=N)N
7. CC[N+](CC)(CC)CC.Cn1cc(NC(=O)c2cc(NC(=O)C(Cl)Cl)cn2C)cc1C(=O)NCCC(=N)N.O=S(=O)([O-])O

> 100 µg/mL
> 100 µg/mL
> 200 µg/mL
> 200 µg/mL
> 100 µg/mL
> 200 µg/mL
> 100 µg/mL
